Tested on: DU-145 prostate
measurement.protocol: NCI-60 one-dose screen, 48 h (100 = growth as untreated, 0 = no growth, -100 = all killed)
details: 10 µM unless noted
The panel holds about 83,000 compounds, 20% with a hit somewhere; the sample as a whole holds those more often.
Exercise: for every item that follows, state its recorded growth.
Answer in %, number only, no unit symbol.

Summary for this molecule, `Cc1ccccc1NC(=O)c1sc2nc3c(cc2c1N)CCCC3` : growth is 25.2

Given item `C=C1C(=O)O[C@H]2[C@H]1CC/C(CNC(=O)/C=C/c1cc(OC)c(OC)c(OC)c1)=C\CC[C@@]1(C)O[C@@H]21` , the value recorded as its growth is 7.86

Item: `Cc1nc2cccc(NCc3ccc(C(=O)NO)cc3)c2c(=O)n1-c1ccccc1` | growth: 26.7

# molecule O=C1C2C(c3cccs3)C=C(c3ccc(Cl)cc3)N2C(=S)N1c1ccccc1 (stereo not given) ; its growth = 110

Record COc1cc(OCc2cccc(-c3ccccc3)c2C)cc(OC)c1CN1CCCCC1C(=O)NCCOCCOCCN (stereo not given) . Reported growth: 65.7

`CC1=C2[C@@H](CC1)[C@]1(C)O[C@@](C(C)C)(C[C@H]1OC(=O)CO)[C@H]2OC(=O)CCCc1ccccc1` has a reported growth of 75.8

Form field growth, entry `CCCN1C2CCC1/C(=C\c1ccc(OC)cc1)C(=O)/C2=C/c1ccc(OC)cc1` : 90

growth recorded for this molecule, C#CCOC(=O)C(N)CSSCC(N)C(=O)O (stereo not given) , is 119

Value of measured growth for the entry `COc1cc2cc(Oc3ccc(NC(=O)Nc4ccc(F)c(C(F)(F)F)c4)cc3)c(C)nc2cc1OCCN1CCCCC1` : -24.2

Please fill in: growth reported for `CN(C)CCCN(CCC1CCCCC1)CCC1CCCCC1` = 80.9

Sure, the documented growth for `COc1cccc(/C=C2\CCc3ccccc3C2=O)c1` is 97.8

Sure, the documented growth for `COc1ccccc1-c1nc2ccc3[nH]ncc3c2c2c1CCCC2` is 73.5

response.value for `CS(=O)(=O)c1cccc(Nc2ncc3cc(-c4ccccc4Cl)ccc3n2)c1` (field: growth) = 18.6

molecule CCCN1C(=O)N(CCC)C2C1NC(=S)N2/N=C/C=C/c1ccccc1OC (stereo not given) , growth observed: 14.2

Consider `NS(=O)(=O)Oc1cccc(-c2nc3sccn3c2-c2ccccc2)c1` . Its measured growth is 89.9

Sample `COC(=O)CNC(=O)c1ccc(NC(=O)c2[nH]c(C)c(Cl)c2Cl)c(O[C@H]2CCNC2)c1` ; growth observed: 110

For `CNC(=O)c1cc(Oc2ccc3nc(NC(=O)NC(C)C)sc3c2)ccn1` the molecule record lists growth as 98.8

Kindly note the recorded growth for `O=C1NC(=O)C(=Cc2cc(-c3ccc(Cl)cc3)n(-c3ccccc3)n2)C(=O)N1` , which is 105

Per the record, `COc1cc(/C=C2\C(=O)N(CCOc3cc(O)c4c(=O)cc(-c5ccccc5)oc4c3)c3ccccc32)cc(OC)c1O` has growth of 94

growth reading for `O=C(Nc1ncc(Cc2ccc(Cl)cc2)s1)C1=NCCCCN1` : 105
